All values here come from ChEMBL document CHEMBL1123247.

- System: Small cell lung cancer cell line
- test_description: Compound was tested for the inhibition of small cell lung cancer
- Type: functional, cell-based
- applied_conditions: Homo sapiens
metric: pIC50
Answers are plain numbers, as −log10 of the molar value.

For each of the compounds below, note its pIC50.
1. CCCCCCCCCCCCCCCCCCOCC(COP(=O)([O-])OCC[N+](C)(C)C)OC.Nc1ccn([C@@H]2O[C@H](CO)[C@@H](O)[C@@H]2O)c(=O)n1 (centres undefined)
2. CCCCCCCCCCCCCCCCCCOC[C@H](COP(=O)([O-])OCC[N+](C)(C)C)OC [(R)-EDELFOSINE]

Reply |
[4.42, 4.62]
